Entry source: patent US5866700A

experiment notes: Stability test: half-life for deprotection in 0.05N HCl/MeOH (Table 1)
Assay type: physicochemical
conditions: 0.05N HCl/MeOH (1:2), 30 mmolar solution, 20° C., pH 2.0; values +/- 10%
quantity name: t1/2 (half-life for deprotection) (h)

Which measured t1/2 (half-life for deprotection) value corresponds to CC(OCCCl)O[C@@H]1[C@H](O)[C@@H](CO)O[C@H]1n1ccc(=O)[nH]c1=O (stereo partly drawn) ?
10.3

Need t1/2 (half-life for deprotection), item CC(OCCC#N)O[C@@H]1[C@H](O)[C@@H](CO)O[C@H]1n1ccc(=O)[nH]c1=O (stereo partly drawn)
56.17

So what does the record say about t1/2 (half-life for deprotection) for CC(OCCc1ccc([N+](=O)[O-])cc1)O[C@@H]1[C@H](O)[C@@H](CO)O[C@H]1n1ccc(=O)[nH]c1=O (stereo partly drawn) ?
3.7

Quick one: t1/2 (half-life for deprotection) of CC(OCc1ccc([N+](=O)[O-])cc1)O[C@@H]1[C@H](O)[C@@H](CO)O[C@H]1n1ccc(=O)[nH]c1=O (stereo partly drawn) ?
32.67

P: CC(OCCSc1ccccc1)O[C@@H]1[C@H](O)[C@@H](CO)O[C@H]1n1ccc(=O)[nH]c1=O (stereo partly drawn)
Q: CC(OCC[N+](=O)[O-])O[C@@H]1[C@H](O)[C@@H](CO)O[C@H]1n1ccc(=O)[nH]c1=O (stereo partly drawn)
I'm curious whether P or Q has the smaller t1/2 (half-life for deprotection) number. Which is it? To answer, give the label that identifies your chosen option.
P
(P: 3.83 h, Q: 67.17 h)
